- assay_summary: Cmax in Wistar rat at 3 mg/kg, po
- Assay type: ADME, organism-based
- Set-up: dose 3 mg/kg, route po
- measurement_parameters: in vivo
result_type: Cmax (ng/mL)
Form entry: value (ng/mL) — number only.

Returns the measured Cmax for the input molecule. Input: N#CCNC(=O)c1ccc(-c2nc(Nc3ccc(N4CCC(N5CCOCC5)CC4)cc3)ncc2Cl)cc1 1080

Returns the measured Cmax for the input molecule. Input: Cc1cnc(Nc2ccc(N3CCC(N4CCOCC4)CC3)cc2)nc1-c1ccc(C(=O)NCC#N)cc1 470

Returns the measured Cmax for the input molecule. Input: N#CCNC(=O)c1ccc(-c2ccnc(Nc3ccc(N4CCOCC4)cc3)n2)cc1 470

Returns the measured Cmax for the input molecule. Input: N#CCNC(=O)c1ccc(-c2nc(Nc3ccc(N4CCC(N5CCOCC5)CC4)cc3)ncc2F)cc1 7820
